Biological target: XBP1 (Homo sapiens, UniProt P17861)
Construct: made in house
Sequence (P17861 70-133 limits assumed): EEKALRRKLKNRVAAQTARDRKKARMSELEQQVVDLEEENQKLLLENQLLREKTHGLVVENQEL
Assay: Direct-binding FRET assay
Conditions: 23°C; C-terminal rhodamine design; mean or single; read-out: Kd
Where no end group is shown, it is not given here.
Measurement name: Kd

Inquiry: Name the reported Kd value associated with the sequence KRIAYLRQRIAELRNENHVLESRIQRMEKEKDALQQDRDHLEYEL [ATF5-d1]
Reply text: > 1000 nM

###

Molecular target: ATF3 (Homo sapiens)
Construct: made in house
Sequence (P18847 86-149 limits assumed): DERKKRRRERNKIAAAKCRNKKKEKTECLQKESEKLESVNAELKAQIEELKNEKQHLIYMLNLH
Assay: Direct-binding FRET assay
Details: 37°C; C-terminal fluorescein design as donor, TAMRA target titrated
pKd: −log10 of the molar value. Where no end group is shown, it is not given here.
Measurement name: pKd

Inquiry: Which pKd reading was recorded for the sequence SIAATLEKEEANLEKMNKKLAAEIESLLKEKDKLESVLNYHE [JUN-d1] ?
Reply text: < 6.00
